Assayed Target: Prostaglandin G/H synthase 1 (Ovis aries)
Sequence (P05979 whole entry): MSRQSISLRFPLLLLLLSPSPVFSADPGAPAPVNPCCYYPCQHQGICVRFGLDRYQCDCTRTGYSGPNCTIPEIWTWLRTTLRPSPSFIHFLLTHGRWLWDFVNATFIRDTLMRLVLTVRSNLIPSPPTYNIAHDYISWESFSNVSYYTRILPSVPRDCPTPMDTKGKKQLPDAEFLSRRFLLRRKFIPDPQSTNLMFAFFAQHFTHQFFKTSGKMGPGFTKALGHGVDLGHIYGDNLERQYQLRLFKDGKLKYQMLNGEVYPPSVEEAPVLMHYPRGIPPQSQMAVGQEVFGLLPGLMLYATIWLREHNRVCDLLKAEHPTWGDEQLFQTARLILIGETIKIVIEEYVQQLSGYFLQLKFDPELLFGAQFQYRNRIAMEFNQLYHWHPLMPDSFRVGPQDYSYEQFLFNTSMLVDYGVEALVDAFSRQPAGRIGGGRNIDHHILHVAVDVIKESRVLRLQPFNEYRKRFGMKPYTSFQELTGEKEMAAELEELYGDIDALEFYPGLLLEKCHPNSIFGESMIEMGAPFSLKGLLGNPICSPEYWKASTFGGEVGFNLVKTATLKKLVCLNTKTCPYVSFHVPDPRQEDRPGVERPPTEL
pIC50: −log10 of the molar value.
Outcome Measure: pIC50

I. CCSc1cc(-c2ccccc2)c(-c2ccc(S(C)(=O)=O)cc2)c(=O)o1
II. Cc1cc(-c2ccccc2)c(-c2ccc(S(C)(=O)=O)cc2)c(=O)o1
III. COc1cc(-c2ccccc2)c(-c2ccc(S(C)(=O)=O)cc2)c(=O)o1
[in] Reorder: pIC50, max to min. Give the labels in the order specified.
[out] III, I, II
